- TEST_TARGET: hNK2R (Homo sapiens)
- Construct: host or cells: COS-7
- Sequence (P21452 whole entry): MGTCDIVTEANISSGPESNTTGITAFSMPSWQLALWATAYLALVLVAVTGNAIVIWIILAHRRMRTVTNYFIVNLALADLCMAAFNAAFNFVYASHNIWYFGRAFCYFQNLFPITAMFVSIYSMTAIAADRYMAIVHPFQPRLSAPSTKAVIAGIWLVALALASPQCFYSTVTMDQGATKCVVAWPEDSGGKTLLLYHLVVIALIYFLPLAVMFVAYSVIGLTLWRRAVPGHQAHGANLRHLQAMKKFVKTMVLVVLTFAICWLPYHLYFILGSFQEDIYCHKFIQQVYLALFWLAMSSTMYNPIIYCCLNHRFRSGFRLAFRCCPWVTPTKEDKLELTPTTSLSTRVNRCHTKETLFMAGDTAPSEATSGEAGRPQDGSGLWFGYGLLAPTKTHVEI
- ASSAY_METHOD_TEXT: IP3 assay (inositol trisphosphate, 3H-myoinositol) in transiently transfected COS-7 cells
- Format: cell-based
- APPLIED_CONDITIONS: COS-7 cells; figure legends: percent of 10^-6 M NKA
Numbered stars: 1 amine (or outer) side, 2 acyl side, 3 side chain; on linkers, the order of the positions; unused ones are H or OH. Square brackets hold non-standard residues; d marks the D form. Peptide text beside a SMILES is read from it. * marks the point of attachment. C18 diacid = O=C(O)CCCCCCCCCCCCCCCCC(=O)*; C16 diacid = O=C(O)CCCCCCCCCCCCCCC(=O)*; γGlu = O=C(O)[C@H](CCC(=O)[*:2])N[*:1]; Stearoyl = CCCCCCCCCCCCCCCCCC(=O)*; mTyr = N[C@@H](Cc1cccc(O)c1)C(=O)O; NMeL = CN[C@@H](CC(C)C)C(=O)O; hSer = N[C@@H](CCO)C(=O)O; Nle = CCCC[C@H](N)C(=O)O; AEEA = NCCOCCOCC(=O)O
Reported hNK2R, IP3 Efficacy values are given for each entry in this list.

Known results for compounds:
Recorded result, CCCCCCCCCCCCCCCCCC(=O)N[C@@H](CCC(=O)NCCOCCOCC(=O)NCCOCCOCC(=O)N[C@@H](CC(=O)O)C(=O)N[C@@H](CCCCN)C(=O)N[C@@H](Cc1ccc(O)cc1)C(=O)N[C@H](C(=O)NCC(=O)N(C)[C@@H](CC(C)C)C(=O)N[C@@H](CCOC)C(N)=O)C(C)C)C(=O)O [compound 391, *Asp;Lys;Tyr;Val;Gly;NmLeu;Metox;NH2] ({Stearoyl-γGlu-AEEA-AEEA}-DKYVG[NMeL][hSer](Me)-NH2) , hNK2R, IP3 Efficacy: 90%

The measured hNK2R, IP3 Efficacy associated with CCCC[C@H](NC(=O)[C@H](CC(C)C)N(C)C(=O)CNC(=O)[C@@H](NC(=O)[C@H](Cc1ccc(O)cc1)NC(=O)[C@H](CCCCN)NC(=O)[C@H](CC(=O)O)NC(=O)COCCOCCNC(=O)COCCOCCNC(=O)CC[C@H](NC(=O)CCCCCCCCCCCCCCC(=O)O)C(=O)O)C(C)C)C(N)=O [compound 367, *Asp;Lys;Tyr;Val;Gly;NmLeu;Nle;NH2] ({C16 diacid-γGlu-AEEA-AEEA}-DKYVG[NMeL][Nle]-NH2) reads 75%

Record summary for COc1ccc(C[C@H](NC(=O)[C@H](CC(C)C)N(C)C(=O)CNC(=O)[C@@H](NC(=O)[C@H](Cc2ccccc2)NC(=O)[C@H](CCCCN)NC(=O)[C@H](CC(=O)O)NC(=O)COCCOCCNC(=O)COCCOCCNC(=O)CC[C@H](NC(=O)CCCCCCCCCCCCCCCCC(=O)O)C(=O)O)C(C)C)C(N)=O)cc1 [compound 370, *Asp;Lys;Phe;Val;Gly;NmLeu;4-MeOPhe;NH2] ({C18 diacid-γGlu-AEEA-AEEA}-DKFVG[NMeL]Y(Me)-NH2) : reported hNK2R, IP3 Efficacy = 90%

Sample CCCC[C@H](NC(=O)[C@H](CC(C)C)N(C)C(=O)CNC(=O)[C@@H](NC(=O)[C@H](Cc1cccc(O)c1)NC(=O)[C@H](CCCCN)NC(=O)[C@H](CC(=O)O)NC(=O)COCCOCCNC(=O)COCCOCCNC(=O)CC[C@H](NC(=O)CCCCCCCCCCCCCCCCC(=O)O)C(=O)O)C(C)C)C(N)=O [compound 361, *Asp;Lys;3-OH-Phe;Val;Gly;NmLeu;Nle;NH2] ({C18 diacid-γGlu-AEEA-AEEA}-DK[mTyr]VG[NMeL][Nle]-NH2) ; hNK2R, IP3 Efficacy observed: 100%

With those in mind, consider the next compound.
Measured hNK2R, IP3 Efficacy, CCCC[C@H](NC(=O)[C@H](CC(C)C)N(C)C(=O)CNC(=O)[C@@H](NC(=O)[C@H](Cc1ccccc1)NC(=O)[C@H](CCCNC(=N)N)NC(=O)[C@H](CC(=O)O)NC(=O)COCCOCCNC(=O)COCCOCCNC(=O)CC[C@H](NC(=O)CCCCCCCCCCCCCCCCC(=O)O)C(=O)O)C(C)C)C(N)=O [compound 306, *Asp;Arg;Phe;Val;Gly;NmLeu;Nle;NH2] ({C18 diacid-γGlu-AEEA-AEEA}-DRFVG[NMeL][Nle]-NH2) : 90%

---

hNK1R, IP3 Efficacy reference
- TEST_TARGET: hNK1R (Homo sapiens, UniProt P25103)
- Construct: host or cells: COS-7
- Sequence (P25103 whole entry): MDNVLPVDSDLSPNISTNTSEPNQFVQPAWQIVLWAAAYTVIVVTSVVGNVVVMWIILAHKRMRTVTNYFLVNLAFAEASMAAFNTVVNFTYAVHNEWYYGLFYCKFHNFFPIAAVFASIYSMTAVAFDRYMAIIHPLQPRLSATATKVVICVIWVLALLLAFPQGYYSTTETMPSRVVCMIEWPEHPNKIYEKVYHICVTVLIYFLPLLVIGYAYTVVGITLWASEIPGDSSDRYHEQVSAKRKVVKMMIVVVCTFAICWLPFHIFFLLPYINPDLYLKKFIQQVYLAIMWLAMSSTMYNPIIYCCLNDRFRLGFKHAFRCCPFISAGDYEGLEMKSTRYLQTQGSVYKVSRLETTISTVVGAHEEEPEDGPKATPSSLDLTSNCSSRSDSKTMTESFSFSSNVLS
- ASSAY_METHOD_TEXT: IP3 assay (inositol trisphosphate, 3H-myoinositol) in transiently transfected COS-7 cells
- Assay type: cell-based
- APPLIED_CONDITIONS: COS-7 cells; figure legends: percent of 10^-6 M NKA
Numbered stars: 1 amine (or outer) side, 2 acyl side, 3 side chain; on linkers, the order of the positions; unused ones are H or OH. Square brackets hold non-standard residues; d marks the D form. Peptide text beside a SMILES is read from it. * marks the point of attachment. C18 diacid = O=C(O)CCCCCCCCCCCCCCCCC(=O)*; γGlu = O=C(O)[C@H](CCC(=O)[*:2])N[*:1]; Stearoyl = CCCCCCCCCCCCCCCCCC(=O)*; mTyr = N[C@@H](Cc1cccc(O)c1)C(=O)O; Cha = N[C@@H](CC1CCCCC1)C(=O)O; NMeL = CN[C@@H](CC(C)C)C(=O)O; hSer = N[C@@H](CCO)C(=O)O; Nle = CCCC[C@H](N)C(=O)O; AEEA = NCCOCCOCC(=O)O; Aib = CC(C)(N)C(=O)O
Quick reminder: number only, in %, skip the unit.

The compound CCCC[C@H](NC(=O)[C@H](CC(C)C)N(C)C(=O)CNC(=O)[C@@H](NC(=O)[C@H](Cc1ccccc1)NC(=O)[C@H](CCCNC(=N)N)NC(=O)[C@H](CC(=O)O)NC(=O)COCCOCCNC(=O)COCCOCCNC(=O)CC[C@H](NC(=O)CCCCCCCCCCCCCCCCC(=O)O)C(=O)O)C(C)C)C(N)=O [compound 306, *Asp;Arg;Phe;Val;Gly;NmLeu;Nle;NH2] ({C18 diacid-γGlu-AEEA-AEEA}-DRFVG[NMeL][Nle]-NH2) showed hNK1R, IP3 Efficacy equal to 80

Short answer for CCCC[C@H](NC(=O)[C@H](CC(C)C)N(C)C(=O)CNC(=O)[C@@H](NC(=O)[C@H](Cc1ccc(O)cc1)NC(=O)[C@H](CCCNC(=N)N)NC(=O)[C@H](CCC(=O)O)NC(=O)COCCOCCNC(=O)COCCOCCNC(=O)CC[C@H](NC(=O)CCCCCCCCCCCCCCCCC(=O)O)C(=O)O)C(C)C)C(N)=O [compound 357, *Glu;Arg;Tyr;Val;Gly;NmLeu;Nle;NH2] ({C18 diacid-γGlu-AEEA-AEEA}-ERYVG[NMeL][Nle]-NH2) : hNK1R, IP3 Efficacy was 50

So, CCCC[C@H](NC(=O)[C@H](CC(C)C)N(C)C(=O)CNC(=O)[C@@H](NC(=O)[C@H](Cc1cccc(O)c1)NC(=O)[C@H](CCCCN)NC(=O)[C@H](CC(=O)O)NC(=O)COCCOCCNC(=O)COCCOCCNC(=O)CC[C@H](NC(=O)CCCCCCCCCCCCCCCCC(=O)O)C(=O)O)C(C)C)C(N)=O [compound 361, *Asp;Lys;3-OH-Phe;Val;Gly;NmLeu;Nle;NH2] ({C18 diacid-γGlu-AEEA-AEEA}-DK[mTyr]VG[NMeL][Nle]-NH2) ? Its hNK1R, IP3 Efficacy was 70

What the record says about CCCC[C@H](NC(=O)[C@H](CC(C)C)NC(=O)[C@@H](CO)NC(=O)[C@@H](NC(=O)[C@H](Cc1ccccc1)NC(=O)[C@H](CCCCN)NC(=O)[C@H](CC(=O)O)NC(=O)COCCOCCNC(=O)COCCOCCNC(=O)CC[C@H](NC(=O)CCCCCCCCCCCCCCCCC(=O)O)C(=O)O)C(C)C)C(N)=O [compound 385, *Asp;Lys;Phe;Val;dSer;Leu;Nle;NH2] ({C18 diacid-γGlu-AEEA-AEEA}-DKFV[dS]L[Nle]-NH2) : hNK1R, IP3 Efficacy is 0

get_value(item= COCC[C@H](NC(=O)[C@H](CC(C)C)NC(=O)C(C)(C)NC(=O)[C@@H](NC(=O)[C@H](Cc1ccc(O)cc1)NC(=O)[C@H](CCCCN)NC(=O)[C@H](CC(=O)O)NC(=O)COCCOCCNC(=O)COCCOCCNC(=O)CC[C@H](NC(=O)CCCCCCCCCCCCCCCCC(=O)O)C(=O)O)C(C)C)C(N)=O [compound 394, *Asp;Lys;Tyr;Val;Aib;Leu;Metox;NH2] ({C18 diacid-γGlu-AEEA-AEEA}-DKYV[Aib]L[hSer](Me)-NH2) , readout=hNK1R, IP3 Efficacy) returns 35

// sample CCCCCCCCCCCCCCCCCC(=O)N[C@@H](CCC(=O)NCCOCCOCC(=O)NCCOCCOCC(=O)N[C@@H](CC(=O)O)C(=O)N[C@@H](CCCCN)C(=O)N[C@@H](Cc1ccc(O)cc1)C(=O)N[C@H](C(=O)NCC(=O)N(C)[C@@H](CC(C)C)C(=O)N[C@@H](CCOC)C(N)=O)C(C)C)C(=O)O [compound 391, *Asp;Lys;Tyr;Val;Gly;NmLeu;Metox;NH2] ({Stearoyl-γGlu-AEEA-AEEA}-DKYVG[NMeL][hSer](Me)-NH2) , its hNK1R, IP3 Efficacy was 100

Recorded hNK1R, IP3 Efficacy (compound CC(C)C[C@@H](C(=O)N[C@@H](CC1CCCCC1)C(N)=O)N(C)C(=O)CNC(=O)[C@@H](NC(=O)[C@H](Cc1ccc(O)cc1)NC(=O)[C@H](CCCCN)NC(=O)[C@H](CC(=O)O)NC(=O)COCCOCCNC(=O)COCCOCCNC(=O)CC[C@H](NC(=O)CCCCCCCCCCCCCCCCC(=O)O)C(=O)O)C(C)C [compound 313, *Asp;Lys;Tyr;Val;Gly;NmLeu;cHexAla;NH2] ({C18 diacid-γGlu-AEEA-AEEA}-DKYVG[NMeL][Cha]-NH2) ): 20

# hNK1R, IP3 Efficacy (compound: COCC[C@H](NC(=O)[C@H](CC(C)C)N(C)C(=O)CNC(=O)[C@@H](NC(=O)[C@H](Cc1ccc(O)cc1)NC(=O)[C@H](CCCCN)NC(=O)[C@H](CCC(=O)O)NC(=O)COCCOCCNC(=O)COCCOCCNC(=O)CC[C@H](NC(=O)CCCCCCCCCCCCCCCCC(=O)O)C(=O)O)C(C)C)C(N)=O [compound 382, *Glu;Lys;Tyr;Val;Gly;NmLeu;Metox;NH2] ({C18 diacid-γGlu-AEEA-AEEA}-EKYVG[NMeL][hSer](Me)-NH2) ) is 30

Looking up COCC[C@H](NC(=O)[C@H](CC(C)C)N(C)C(=O)CNC(=O)[C@@H](NC(=O)[C@H](Cc1ccc(O)cc1)NC(=O)[C@H](CCCCN)NC(=O)[C@H](CC(=O)O)NC(=O)COCCOCCNC(=O)COCCOCCNC(=O)CC[C@H](NC(=O)CCCCCCCCCCCCCCCCC(=O)O)C(=O)O)[C@@H](C)O)C(N)=O [compound 366, *Asp;Lys;Tyr;Thr;Gly;NmLeu;Metox;NH2] ({C18 diacid-γGlu-AEEA-AEEA}-DKYTG[NMeL][hSer](Me)-NH2) , I see its hNK1R, IP3 Efficacy listed as 0

Values from patent US20230406883A1
